Molecular target: Bcat-Halo (UniProt P35222)
Sequence (P35222 whole entry): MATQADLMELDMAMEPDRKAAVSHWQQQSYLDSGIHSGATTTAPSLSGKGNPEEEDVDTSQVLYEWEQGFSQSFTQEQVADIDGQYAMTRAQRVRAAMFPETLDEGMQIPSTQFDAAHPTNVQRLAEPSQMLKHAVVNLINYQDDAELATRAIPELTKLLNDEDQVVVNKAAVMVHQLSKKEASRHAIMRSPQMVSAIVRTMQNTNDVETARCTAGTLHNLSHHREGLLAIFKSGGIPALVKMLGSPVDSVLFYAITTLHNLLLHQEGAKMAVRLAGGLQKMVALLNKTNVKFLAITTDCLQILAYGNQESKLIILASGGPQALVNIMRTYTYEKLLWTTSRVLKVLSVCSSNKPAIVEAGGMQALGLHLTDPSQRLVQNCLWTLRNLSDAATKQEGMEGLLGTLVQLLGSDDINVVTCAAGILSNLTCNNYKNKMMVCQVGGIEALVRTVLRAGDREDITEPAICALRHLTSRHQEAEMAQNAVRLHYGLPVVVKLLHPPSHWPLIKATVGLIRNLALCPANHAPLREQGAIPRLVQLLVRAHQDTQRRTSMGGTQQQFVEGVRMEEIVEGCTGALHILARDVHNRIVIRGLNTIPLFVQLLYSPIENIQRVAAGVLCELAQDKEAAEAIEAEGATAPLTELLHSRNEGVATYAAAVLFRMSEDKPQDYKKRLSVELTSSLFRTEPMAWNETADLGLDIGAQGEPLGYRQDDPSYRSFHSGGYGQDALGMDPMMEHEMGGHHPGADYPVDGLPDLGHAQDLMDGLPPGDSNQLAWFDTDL
Assay: NanoBRET in HEK293 cells, Bcat-Halo / TCF4-Luc; absolute IC50
Starred links: 1 amine or outer side, 2 acyl side, 3 side chain; linkers in the order of their positions; H or OH if unused. Positions of bridges follow the written chain, without caps; N, C: chain ends. Non-standard residues stand in square brackets, D forms with d. Primed or numbered codes have the meaning given here. PyrS2″ = (S)-3-amino-1-((pent-4-en-1-yloxy)carbonyl)pyrrolidine-3-carboxylic acid (stapling residue), C=CCCCOC(=O)N1CC[C@@](N[*:1])(C(=O)[*:2])C1; B5(4) = 2,2-bis(4-pentenyl)glycine = 2-amino-2-(pent-4-en-1-yl)hept-6-enoic acid (stitching residue), C=CCCCC(CCCC=C)(N[*:1])C(=O)[*:2]; B5(5) = 2,2-bis(4-pentenyl)glycine, 2-amino-2-(pent-4-en-1-yl)hept-6-enoic acid (stitching residue), C=CCCCC(CCCC=C)(N[*:1])C(=O)[*:2]; 2COOHF = (S)-2-(2-amino-2-carboxyethyl)benzoic acid, O=C([C@H](Cc1ccccc1C(=O)[*:3])N[*:1])[*:2]; 2F3MeF = Cc1cccc(C[C@H](N[*:1])C(=O)[*:2])c1F; Phe(2-Cl) = N[C@@H](Cc1ccccc1Cl)C(=O)O; Bta = N[C@@H](Cc1csc2ccccc12)C(=O)O; αAllylPro = C=CC[C@@]1(C(=O)O)CCCN1; tBuAla = CC(C)(C)C[C@H](N)C(=O)O; S8 = C=CCCCCCC[C@](C)(N)C(=O)O; hSer = N[C@@H](CCO)C(=O)O
# IC50 per entry
metric: IC50 (µM)

>>> quantitative_readout("Ac-[αAllylPro]D[tBuAla][B5(5)]D[2COOHF]AAFF[PyrS2″][2F3MeF][Bta]S-NH2 (staple 1-4, 4-11) [I-1659]")
11.4
>>> quantitative_readout("Ac-[αAllylPro]D[tBuAla][B5(4)]DDAAF[hSer][S8]F[Bta]Q-NH2 (staple 1-4, 4-11) [I-1388]")
11.3
>>> quantitative_readout("Ac-[αAllylPro]D[tBuAla][B5(5)]D[2COOHF]AAFF[PyrS2″][2F3MeF][Bta]Q-NH2 (staple 1-4, 4-11) [I-1655]")
12.7
>>> quantitative_readout("Ac-[αAllylPro]D[tBuAla][B5(5)]D[2COOHF]AAFF[PyrS2″][Phe(2-Cl)][Bta]Q-NH2 (staple 1-4, 4-11) [I-1657]")
11
